Cited source: patent US12030876B2

# Study system: AHR (Homo sapiens)
# Construct: endogenous in cells; host or cells: HepG2 (human), transfected with a DRE-luciferase reporter only
# Sequence (P35869 11-848): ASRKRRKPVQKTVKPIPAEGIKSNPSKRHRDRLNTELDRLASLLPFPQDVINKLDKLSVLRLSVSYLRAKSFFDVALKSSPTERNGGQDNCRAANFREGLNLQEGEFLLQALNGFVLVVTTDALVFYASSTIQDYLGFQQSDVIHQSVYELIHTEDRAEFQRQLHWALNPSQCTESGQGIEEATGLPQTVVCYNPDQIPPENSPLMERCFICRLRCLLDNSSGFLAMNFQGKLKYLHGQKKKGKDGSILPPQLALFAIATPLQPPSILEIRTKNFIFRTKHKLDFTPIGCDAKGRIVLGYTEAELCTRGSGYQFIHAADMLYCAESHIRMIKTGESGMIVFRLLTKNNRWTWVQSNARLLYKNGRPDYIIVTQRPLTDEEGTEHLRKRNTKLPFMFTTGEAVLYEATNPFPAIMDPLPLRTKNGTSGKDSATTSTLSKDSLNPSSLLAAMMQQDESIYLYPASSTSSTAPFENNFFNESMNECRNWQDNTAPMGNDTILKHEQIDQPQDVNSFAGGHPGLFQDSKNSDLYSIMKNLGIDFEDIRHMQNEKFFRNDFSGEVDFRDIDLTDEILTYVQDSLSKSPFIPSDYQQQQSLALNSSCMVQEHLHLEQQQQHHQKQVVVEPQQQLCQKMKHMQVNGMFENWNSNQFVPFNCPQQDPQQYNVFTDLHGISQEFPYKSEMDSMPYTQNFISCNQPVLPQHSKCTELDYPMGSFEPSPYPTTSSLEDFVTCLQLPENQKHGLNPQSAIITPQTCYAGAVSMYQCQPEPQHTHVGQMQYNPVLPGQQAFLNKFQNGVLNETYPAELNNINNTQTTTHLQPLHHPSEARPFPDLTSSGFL
# Assay method text: DRE-Luciferase Reporter Assay, HepG2 (agonist)
# Type: cell-based
# Test conditions: HepG2, Table 2; read-out: DRE-Luc HepG2 - Agonist: Average EC50
Measured property: EC50

Example entries and their recorded answers appear below.
{"columns": ["Compound", "Measured property", "Endpoint value"],
 "data": [
  ["C[N+](C)(CCO)CCOCCN(c1ccc(C(F)(F)F)cc1)c1nc(-c2cccc(Cl)c2)cs1 [I-52]", "EC50", "> 1000 nM"],
  ["Cn1cc(-c2cccc(Cl)c2)nc1Nc1cccc(C(F)(F)F)c1 [I-70]", "EC50", "> 1000 nM"],
  ["O=C(c1cccc(-c2csc(Nc3cccc(C(F)(F)F)c3)n2)c1)N1CCOCC1 [I-43]", "EC50", "100 to 1000 nM"],
  ["C[N+](C)(C)CCCC(=O)Nc1cccc(-c2csc(Nc3cccc(C(F)(F)F)c3)n2)c1 [I-40]", "EC50", "100 to 1000 nM"],
  ["COc1cccc(-c2csc(Nc3cccc(C(F)(F)F)c3)n2)c1 [Compound P-11]", "EC50", "10 to 100 nM"]
]}

Form: compound = Oc1cccc(-c2csc(Nc3cccc(C(F)(F)F)c3)n2)c1 [I-18] ; EC50 = < 10 nM

Form: compound = FC(F)(F)c1ccc(Nc2nnc(-c3cccc(Cl)c3)o2)cc1 [I-64] ; EC50 = > 1000 nM

Form: compound = FC(F)(F)c1cccc(Nc2nc(-c3ccccc3Cl)cs2)c1 [I-19] ; EC50 = < 10 nM

Form: compound = Cc1sc(Nc2cccc(C(F)(F)F)c2)nc1-c1cccc(Cl)c1 [I-27] ; EC50 = 10 to 100 nM

Form: compound = FC(F)(F)c1cccc(Nc2nc(-c3cccc(Cl)c3)cs2)n1 [I-6] ; EC50 = < 10 nM

Form: compound = C[N+](C)(CCO)CCCC(=O)N(c1cccc(C(F)(F)F)c1)c1nc(-c2cccc(Cl)c2)cs1 [I-42] ; EC50 = 100 to 1000 nM

Form: compound = FC(F)(F)c1cccc(Nc2nc(-c3ccncc3)cs2)c1 [Compound P-6] ; EC50 = < 10 nM
